Target: IMP1 KH1KH2DD (Homo sapiens, UniProt Q9NZI8 194-369, K294D;E295D)
Sequence (Q9NZI8 194-369 K294D/E295D): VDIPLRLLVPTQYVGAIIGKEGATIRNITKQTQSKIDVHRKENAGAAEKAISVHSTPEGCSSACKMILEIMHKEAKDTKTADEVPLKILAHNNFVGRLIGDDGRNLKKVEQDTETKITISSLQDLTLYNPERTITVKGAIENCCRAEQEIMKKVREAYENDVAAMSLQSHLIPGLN
Test: ITC; 10 mM sodium phosphate pH 7.4, 50 mM NaCl; ITC 25 C with 2 mM TCEP; BLI 30 C with 0.5 mM TCEP and 0.5 mg/ml BSA; NMR 0.5 mM TCEP; RNAsin 40-100 u/ml
Conditions: protein: recombinant; tags: 6xHis-GST removed by TEV
property: log10 Kd (log10 of the value in µM)
Please interpret these as log10 of Kd where Kd is in µM.

Any idea what log10 Kd was measured for UACGU (ssRNA) ?
1.40

Field entry: UCCGU (ssRNA)
-0.30

Field entry: UCUGU (ssRNA)
0.41

Field entry: UCAGU (ssRNA)
0.00

Field entry: UCCGC (ssRNA)
-0.10

Field entry: UGCGU (ssRNA)
1.41

Field entry: UUCGU (ssRNA)
1.40
